Collected Ki values appear next to each entry.
target: BRD4-2 (Homo sapiens, UniProt O60885); construct: made in house; host or cells: Escherichia coli; test: BRD4-2 Ligand KI assay (TR-FRET displacement of Cy5 labeled probe); type: binding; conditions: 10 nM labeled ligand, 0.5 nM BRD4-2; Ki from IC50 by Cheng and Prusoff; read-out: BRD4-2 Ligand K2
Give the value in nM but do not write nM after it.

[
  {
    "COMPOUND": "Cc1noc(C)c1-c1cc(C(O)(c2cccnn2)c2c(F)cccc2F)c2[nH]c(=O)[nH]c2c1 (centres unmarked) [Example 50]",
    "Ki (nM)": 5.9
  }
]

What value of Ki has been recorded for this entry: Cc1noc(C)c1-c1cc(C(O)(c2ccc(F)cn2)c2ccc(F)cc2F)c2[nH]c(=O)[nH]c2c1 (centres unmarked) [Example 39]
5.9

Subsequent entry: Cc1cccc(C(O)(c2ccccn2)c2cc(-c3c(C)noc3C)cc3[nH]c(=O)[nH]c23)n1 (centres unmarked) [Example 147]
16

Subsequent entry: Cc1noc(C)c1-c1cc(C(O)(CC(C)(C)C)c2ccccn2)c2[nH]c(=O)[nH]c2c1 (centres unmarked) [Example 143]
8

Subsequent entry: Cc1noc(C)c1-c1cc(-c2cccnc2C2CC2)c2[nH]c(=O)[nH]c2c1 [Example 73]
24

Subsequent entry: Cc1cccc(C(O)(c2cccc(C)n2)c2cc(-c3c(C)noc3C)cc3[nH]c(=O)[nH]c23)n1 [Example 134]
5.3

Subsequent entry: Cc1noc(C)c1-c1cc(C(O)(c2ccc(F)cn2)c2c(F)cccc2F)c2[nH]c(=O)[nH]c2c1 (centres unmarked) [Example 38]
4.4

Subsequent entry: Cc1noc(C)c1-c1cc(C(O)(c2ccccc2)c2ccc3ccc(F)cc3n2)c2[nH]c(=O)[nH]c2c1 (centres unmarked) [Example 33]
5.3

Subsequent entry: Cc1noc(C)c1-c1cc(C(O)(c2ccc(F)cn2)c2c(F)cc(F)cc2F)c2[nH]c(=O)[nH]c2c1 (centres unmarked) [Example 52]
6.4

Subsequent entry: Cc1noc(C)c1-c1cc(-c2c(C3CC3)n[nH]c2C2CC2)c2[nH]c(=O)[nH]c2c1 [Example 23]
3

Subsequent entry: Cc1noc(C)c1-c1cc(C(O)(c2ccc(Cl)cn2)c2ccc(Cl)cn2)c2[nH]c(=O)[nH]c2c1 [Example 55]
18.2

###

assay: MT-4 proliferation assay in 384-well format (Cell Titer Glo); format: cell-based, human; settings: human, MT-4 cells, Table 1, 50% decrease in luminescence signal, read-out: CC50 MT4 384
Collected CC50 at 5 days values appear next to each entry.
Give the value in nM but do not write nM after it.

[
  {
    "INPUT SMILES": "Cc1noc(C)c1-c1cc(-c2c(C)noc2C)c2c(c1)[nH]c(=O)n2C",
    "CC50 at 5 days, nM": 204
  },
  {
    "INPUT SMILES": "Cc1noc(C)c1-c1cc(-c2c(C)noc2C)c2[nH]c(=O)[nH]c2c1",
    "CC50 at 5 days, nM": 196
  },
  {
    "INPUT SMILES": "Cc1noc(C)c1-c1cc(-c2cccnc2-c2ccccc2)c2oc(=O)[nH]c2c1",
    "CC50 at 5 days, nM": 761
  }
]

What value of CC50 at 5 days has been recorded for this entry: Cc1cnn(C)c1-c1cc(-c2c(C)noc2C)cc2[nH]c(=O)[nH]c12
233

###

target: BRD4-2 (Homo sapiens, UniProt O60885)
ASSAY READOUT: pIC50
Formally, pIC50 is defined as -log10 of the concentration c, with c in mol/L.

Past entries and their recorded results:
[
  {
    "COMPOUND": "Cc1ccc2ncccc2c1-c1cc(-c2c(C)noc2C)cc2[nH]c(=O)oc12",
    "VALUE": 6.76
  },
  {
    "COMPOUND": "Cc1ccc2ncccc2c1-c1cc(-c2c(C)noc2C)cc2[nH]c(=O)[nH]c12 (racemic)",
    "VALUE": 6.92
  }
]

Consider now this further compound.
What value of pIC50 has been recorded for this entry: Cc1noc(C)c1-c1cc(-c2c(C)noc2C)c2oc(=O)[nH]c2c1
6.40

The reported measurements were obtained from patent US20160031868A1.
